These measurements were taken from patent US10072023B2.

Experiment: Absorbance at photostationary state (PSS) under simulated sunlight or 365 nm light
Type: physicochemical
Settings: 365 nm light source; 2.0×10^−5 M in triglyme

Query Smiles	Absorbance at PSS, 365 nm
COc1cc(OC)cc(-c2cc(C3=C(c4cc(-c5cc(OC)cc(OC)c5)sc4-c4cc(OC)cc(OC)c4)C(F)(F)C(F)(F)C3(F)F)c(-c3cc(OC)cc(OC)c3)s2)c1	0.206
Cc1c(-c2ccccc2)sc(-c2ccccc2)c1C1=C(c2c(-c3ccccc3)sc(-c3ccccc3)c2C)C(F)(F)C(F)(F)C1(F)F	0.049
Cc1ccc(-c2sc(-c3cccs3)cc2C2=C(c3cc(-c4cccs4)sc3-c3ccc(C)s3)C(F)(F)C(F)(F)C2(F)F)s1	0.281
COc1ccc2c(C3=C(c4c(-c5ccc(C)s5)oc5cc(OC)ccc45)C(F)(F)C(F)(F)C3(F)F)c(-c3ccc(C)s3)oc2c1	0.318
CC(C)(C)c1ccc(-c2sc(C(C)(C)C)cc2C2=C(c3cc(C(C)(C)C)sc3-c3ccc(C(C)(C)C)s3)C(F)(F)C(F)(F)C2(F)F)s1	0.06
CC(C)(C)c1ccc(-c2cc(C3=C(c4cc(-c5ccc(C(C)(C)C)s5)sc4-c4ccc(OCCCCC(=O)O)cc4)C(F)(F)C(F)(F)C3(F)F)c(-c3ccc(OCCCCC(=O)O)cc3)s2)s1	0.377
CC(C)(C)c1ccc(-c2cc(C3=C(c4cc(-c5ccc(C(C)(C)C)s5)sc4-c4ccc(O[Si](O[Si](C)(C)C)(O[Si](C)(C)C)O[Si](C)(C)C)cc4)C(F)(F)C(F)(F)C3(F)F)c(-c3ccc(O[Si](O[Si](C)(C)C)(O[Si](C)(C)C)O[Si](C)(C)C)cc3)s2)s1	0.34
CC(C)(C)c1ccc(-c2sc(-c3ccc(C(C)(C)O)cc3)cc2C2=C(c3cc(-c4ccc(C(C)(C)O)cc4)sc3-c3ccc(C(C)(C)C)cc3)C(F)(F)C(F)(F)C2(F)F)cc1	0.182

====

The entries below come with measured Absorbance at PSS, full values attached.
Test: Absorbance at photostationary state (PSS) under simulated sunlight or 365 nm light
Assay type: physicochemical
Conditions: simulated sunlight (QSUN solar simulator), no UV blocking film; 2.0×10^−5 M in triglyme
Outcome Measure: Absorbance at PSS, full

Query Smiles	Recorded Result
COc1ccc(-c2sc(-c3ccc(/C=C/c4ccccc4)cc3)cc2C2=C(c3cc(-c4ccc(/C=C/c5ccccc5)cc4)sc3-c3ccc(OC)cc3)C(F)(F)C(F)(F)C2(F)F)cc1	0.202
c1ccc(-c2cc(-c3nc(-c4ccccc4)sc3-c3cc(-c4ccccc4)sc3-c3ccccc3)c(-c3ccccc3)s2)cc1	0.042
Cc1cc(-c2sc(C)c(C)c2C2=C(c3c(-c4cc(C)c(C)s4)sc(C)c3C)C(F)(F)C(F)(F)C2(F)F)sc1C	0.048
COc1ccc(-c2cc(C3=C(c4cc(-c5ccc(OC)cc5)sc4-c4ccc(C#N)cc4)C(F)(F)C(F)(F)C3(F)F)c(-c3ccc(C#N)cc3)s2)cc1	0.115
N#Cc1ccc(-c2cc(C3=C(c4cc(-c5ccc(C#N)cc5)sc4-c4ccc(C#N)cc4)C(F)(F)C(F)(F)C3(F)F)c(-c3ccc(C#N)cc3)s2)cc1	0.069
FC(F)(F)c1ccc(-c2cc(C3=C(c4cc(-c5ccc(C(F)(F)F)cc5)sc4-c4ccc(C(F)(F)F)cc4)C(F)(F)C(F)(F)C3(F)F)c(-c3ccc(C(F)(F)F)cc3)s2)cc1	0.062
CCOCCOCCOCCOc1ccc(-c2sc(-c3ccc(C(C)(C)C)s3)cc2C2=C(c3cc(-c4ccc(C(C)(C)C)s4)sc3-c3ccc(OCCOCCOCCOCC)cc3)C(F)(F)C(F)(F)C2(F)F)cc1	0.296
CC(C)(C)c1ccc(-c2cc(C3=C(c4cc(-c5ccc(C(C)(C)C)s5)sc4-c4ccc(C(C)(C)C)s4)C(F)(F)C(F)(F)C3(F)F)c(-c3ccc(C(C)(C)C)s3)s2)s1	0.2655
COc1ccc2c(C3=C(c4c(-c5ccc(C(C)(C)C)cc5)oc5cc(OC)ccc45)C(F)(F)C(F)(F)C3(F)F)c(-c3ccc(C(C)(C)C)cc3)oc2c1	0.106
